- Assay system: T1, HLA-A*01:01 (human)
- T1 construct: MHC class I monomer first loaded with a UV-sensitive peptide (not identified) that is cleaved by UV irradiation and exchanged for the tested peptide; captured on streptavidin plates, detected with anti-β2m; also called peptide-receptive MHC molecules
- Assay comment: UV-ligand exchange, anti-b2m ELISA
- Text: Candidate peptides for T cell based therapies according to the present invention were further tested for their MHC binding capacity (affinity). The individual peptide-MHC complexes were produced by UV-ligand exchange, where a UV-sensitive peptide is cleaved upon UV-irradiation and exchanged with the peptide of interest as analyzed. Only peptide candidates that can effectively bind and stabilize the peptide-receptive MHC molecules prevent dissociation of the MHC complexes. […]
Parameter measured: peptide exchange yield

Name the recorded peptide exchange yield of the binder listed here: NSAINPLIY
> 75%

Name the recorded peptide exchange yield of the binder listed here: ASWAVLCYY
50 to 75%

Name the recorded peptide exchange yield of the binder listed here: NTMDAVPRIDHY
> 75%

Name the recorded peptide exchange yield of the binder listed here: EVDSVALSL
20 to 50%

Name the recorded peptide exchange yield of the binder listed here: YEVDTKLLSL
20 to 50%

Name the recorded peptide exchange yield of the binder listed here: RTGIFPYRF
20 to 50%

Name the recorded peptide exchange yield of the binder listed here: SAPSSSGSPLY
20 to 50%

Name the recorded peptide exchange yield of the binder listed here: ESQTCASDY
50 to 75%
